biological target: Guanine nucleotide-binding protein G(o) subunit alpha (Homo sapiens) (UniProt P09471); experiment: compounds changing RGS8 association with Galphao – biochemical, multiplexed bead flow cytometry, primary screen (AID 1423); details: at 10 µM, actives lie on both sides;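 also: Galphao activated as the GDP aluminium fluoride complex binding bead-coupled RGS8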
Sequence (P09471 whole entry, looked up): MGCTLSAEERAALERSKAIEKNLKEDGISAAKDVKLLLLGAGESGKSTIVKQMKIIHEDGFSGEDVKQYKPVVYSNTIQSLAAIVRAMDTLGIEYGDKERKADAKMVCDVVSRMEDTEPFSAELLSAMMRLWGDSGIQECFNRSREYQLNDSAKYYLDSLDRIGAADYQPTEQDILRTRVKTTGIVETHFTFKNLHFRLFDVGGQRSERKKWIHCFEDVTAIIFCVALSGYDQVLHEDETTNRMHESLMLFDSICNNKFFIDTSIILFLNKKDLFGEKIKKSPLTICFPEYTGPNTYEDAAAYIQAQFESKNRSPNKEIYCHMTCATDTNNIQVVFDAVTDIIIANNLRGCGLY
The whole screen tested about 220,000 compounds, of which about 750 (0.34%) were called active. The sample holds actives, similar compounds and a random draw of the others, so the mix is not that of the screen.
response (percent of control binding) values, listed per item
Give the number; % is assumed, so skip it.

// solved cases for response (percent of control binding) follow
COc1ccc(N=C(C)c2sc3ccccc3c2O)cc1 : 97.2
Nc1ccc(C(=O)OCC(=O)NC2CCCc3ccccc32)cc1[N+](=O)[O-] (stereo unspecified) : 101

query: Please provide the recorded response (percent of control binding) for CCCCN1CCNC1=S , tested on Guanine nucleotide-binding protein G(o) subunit alpha (Homo sapiens) (UniProt P09471).
result: 99.3

query: Please provide the recorded response (percent of control binding) for O=C(O)/C=C/c1ccc(OCCCF)cc1 , tested on Guanine nucleotide-binding protein G(o) subunit alpha (Homo sapiens) (UniProt P09471).
result: 98

Data origin: PubChem BioAssay AID1423
